Non-standard residues stand in square brackets, D forms with d. Residues, ends and D or L forms follow the SMILES beside them. *: point of attachment. Fmoc = O=C(OCC1c2ccccc2-c2ccccc21)*; Cha = N[C@@H](CC1CCCCC1)C(=O)O; AMC = Cc1cc(=O)oc2cc(N*)ccc12
We use 60 mL/min/kg as the dividing line for intrinsic clearance, human liver microsomes: on or above the line is condition met, below is condition not met.

Example entries and their recorded answers appear below.
                                   molecule       answer_label
0  CCN(CC)Cc1cccc(/C=C/c2nc3ccc(F)cc3c(=O)n2-c2ccccc2Cl)n1      condition met
1  CN1C(=O)[C@H](Cc2ccccc2)N[C@@H]1C(C)(C)C  condition not met
2  CCC(=O)N1CCCC(C(=O)N2CCc3c(Cl)cc(Cl)cc3C2C)C1 (centres undefined)      condition met
3   CCCN(CCC1=CCCCC1)C(=O)c1cc(C(F)F)n[nH]1      condition met
4               Cc1nnc(CN(C)Cc2cnn(C)c2C)s1  condition not met

Given the entry C=C(C)COc1ccc(C(=O)NCCc2cn3ccccc3n2)cc1 , answer whether its intrinsic clearance, human liver microsomes meets or surpasses 60 mL/min/kg. condition met

Is intrinsic clearance, human liver microsomes for Oc1ccc(-c2noc(-c3cccnc3)n2)cc1 at or above 60 mL/min/kg? condition not met

Is the recorded value of intrinsic clearance, human liver microsomes equal to or greater than 60 mL/min/kg for this molecule? Cc1cc(=O)oc2cc(NC(=O)[C@H](CCCCN)NC(=O)[C@H](CC3CCCCC3)NC(=O)OCC3c4ccccc4-c4ccccc43)ccc12 (Fmoc-[Cha]-Lys-{AMC}) condition not met

I'd appreciate it if you could say whether O=S(=O)(c1cn[nH]c1)N1CCCC(c2cccc(-c3cccc(Cl)c3)n2)C1 (centres undefined) has intrinsic clearance, human liver microsomes at least equal to 60 mL/min/kg. condition not met

For this molecule, is measured intrinsic clearance, human liver microsomes 60 mL/min/kg or higher? CCCn1ncc2ccc(C3CCCN(CC(=O)N4CCCC4)C3)nc21 (centres undefined) condition not met

---

Would you mind labelling by intrinsic clearance, human liver microsomes? At or over 20 mL/min/kg is met, under is not met.

Could you verify whether the entry CC(=O)N1CCN(C(=O)CS(=O)(=O)C23CC4CC(CC(C4)C2)C3)CC1 shows intrinsic clearance, human liver microsomes of no less than 20 mL/min/kg? not met

Test whether the compound Cn1cnnc1-c1cccc(NS(=O)(=O)c2ccc(N3CCCC3=O)cc2)c1 records intrinsic clearance, human liver microsomes of 20 mL/min/kg or higher. not met

Exam item: decide whether the reported intrinsic clearance, human liver microsomes for c1ccc(-c2noc(C3CCNCC3)n2)nc1 is at least 20 mL/min/kg. not met

Is intrinsic clearance, human liver microsomes at least 20 mL/min/kg? Consider COc1ccc(CN2CCC(c3cc[nH]n3)CC2)cn1 not met

Quick check: does Clc1cnc(NCC2(c3ccncc3)CC2)nc1 have intrinsic clearance, human liver microsomes greater than or equal to 20 mL/min/kg? met

Is the recorded value of intrinsic clearance, human liver microsomes equal to or greater than 20 mL/min/kg for this compound? CC(C)c1nc(/C=C/c2cnn(C)c2)ncc1C(=O)O not met

# check: intrinsic clearance, human liver microsomes of CNc1ncnc2c1ncn2[C@H]1CC[C@H](NC(=O)CCCNC(=O)OC(C)(C)C)[C@H](O)[C@H]1O is greater than or equal to 20 mL/min/kg not met

Quick check: does Cc1cc(C(F)(F)F)nc(N(C)Cc2c(C)noc2C)n1 have intrinsic clearance, human liver microsomes greater than or equal to 20 mL/min/kg? met

Exam item: decide whether the reported intrinsic clearance, human liver microsomes for Cc1oc(C)c(C(=O)Nc2ccn(C)n2)c1C is at least 20 mL/min/kg. met

Quick check: does COCCN(C)c1ccc(CN2CCc3nn(C)c(=O)cc3C2)cn1 have intrinsic clearance, human liver microsomes greater than or equal to 20 mL/min/kg? not met

Record Cn1cnnc1-c1cccc(NS(=O)(=O)c2cc3c(cc2Cl)OCCO3)c1 ; criterion: intrinsic clearance, human liver microsomes no lower than 20 mL/min/kg. Met? not met

Evaluate Cc1sc2ncn(Cc3c(F)cccc3Cl)c(=O)c2c1C : intrinsic clearance, human liver microsomes at minimum 20 mL/min/kg? met

Given the entry CCN1CCN(c2ccc(NC(=O)c3ncoc3-c3ccc4ccccc4c3)cc2)CC1 , answer whether its intrinsic clearance, human liver microsomes meets or surpasses 20 mL/min/kg. not met

Quick check: does Cc1cc(C)c(NC(=O)c2ccnc(OC3CCC3)c2)c(C)n1 have intrinsic clearance, human liver microsomes greater than or equal to 20 mL/min/kg? not met

Is the recorded value of intrinsic clearance, human liver microsomes equal to or greater than 20 mL/min/kg for this compound? Cc1ccccc1NC(=O)Cn1nnc(C2CC2)n1 not met
